Assign log10 of Kd to each entry below.
target system: T1, RSV F subtype B, furin-cleaved ectodomain stabilized in the prefusion conformation (DS-Cav1) (Respiratory syncytial virus subtype B)
T1 construct: extracellular domain; Trimeric soluble antigen; also called Prefusion subtype B
measurement protocol: BLI, IgG on AHQ sensor, 100 nM antigen
Give log10 of Kd, with Kd taken in nM.

Exam item: Recorded log10 of Kd for ADI-18931 (antibody, V domains shown, full-length IgG from yeast; also called Antibody Number 285; Ab # 285) VH: EVQLVESGGGLQKPGRSLRLSCSASGFTFGDYAMSWFRQAPGKGLEWVGFIRSKAYVGTAEYAASVKGRFTISRDDSKSIAYLHMNSLKTEDTAVYYCTRDDILTGFYDRSYYYGIHVWGQGTTVTVSS VL: EIVMTQSPVTLSVSPGERATLSCRASQSVNSNLAWYQKKPGQAPRLLIYSASTRATGVPARFSGSGSGTEFTLTVSSLQSEDFAVYYCQQYDNWPPYTFGQGTKVEIK , please?
Marked response: -0.31

Exam item: Recorded log10 of Kd for ADI-18916 (antibody, V domains shown, full-length IgG from yeast; also called Antibody Number 270; Ab # 270) VH: QVQLVQSGPEVKKPGESLTISCKGSGYDFSNNWIGWVRQMPGKGLEWMGIIYPGDSDTRYSPSFQGQVTLSVDKSISTAYLQWRSLKASDSGIYYCARQIGGLVCSSESCYFYGMDVWGQGTTVTVSS VL: DIRVTQSPSSLSASVGGRVTITCRASQSISNYLNWYQHKPGKAPELLIYGASSLQSGVPSRFSGSGSGTDFTLTISSLQPEDFATYYCQQSDTTPFTFGQGTKLEIK , please?
Marked response: -0.33

Exam item: Recorded log10 of Kd for ADI-18971 (antibody, V domains shown, full-length IgG from yeast; also called Antibody Number 319; Ab # 319) VH: EVQLVESGGGLVQRGGSLRLSCAASGFTFSGNAMSWVRQAPGKGLEWVASIGESATSAYYADSVKGRFTISRDDSKNTLYLQMNSLRPEDTAVYFCAKDRVGWFGEFDAFDFWGQGTMVTVSS VL: SYELTQPPSVSVAPGKTATISCGGNNIGGHKVHWYQQRPGQAPVLVIYYDNVRPSGIPERFSGSNSGNTATLTISRVEAGDEADFYCQVWDSRSEHVIFGGGTKVTVL , please?
Marked response: -0.77

Exam item: Recorded log10 of Kd for ADI-18885 (antibody, V domains shown, full-length IgG from yeast; also called Antibody Number 241; Ab # 241) VH: EVQLQESGPGLVKPLQTLSVTCSVSGGSISSGDNYWSWIRQRPGKGLEWIGYIYYSGTTYYNPSLKSRVTISADRSKNQFSLKMNSLSAADTAVYYCARDGGYDHIWGTHRYFALWGQGTLVTVSS VL: ETTLTQSPGTLSLSPGERATLSCRASQSVNSDYLAWYQQKLGQAPRLLIYGVSNRATGIPDRFTGSGSGTDFTLTISRLEPEDFAVYHCQQYGTSPWTFGQGTKVEIK , please?
Marked response: 0.59

Exam item: Recorded log10 of Kd for ADI-18935 (antibody, V domains shown, full-length IgG from yeast) VH: QVQLQESGPGLVKPSQTLSLTCTVSGRLLSSGDYYWSWIRQSPGRGLEWIGYVYHSGTTSYNPSLKSRITMTVDTSKNQFNLRLTSVTAADTAVYYCARDLGYSSSSPAFYYGIDFWGPGTMVTVSS VL: EIVLTQSPATLSLSPGQRATLSCRASQSVGNYLAWYQQKPGQAPRLLIYDASNRVTGIPARFSGSGSGTDFTLTISRLESEDFAVYYCQQRSNGVLTFGGGTKVDIK , please?
Marked response: -0.24

Exam item: Recorded log10 of Kd for ADI-18966 (antibody, V domains shown, full-length IgG from yeast) VH: QVQLVQSGGGVVQPGRSLRLSCAASGFTFRNYGMHWVRQAPGKGLEWVAAASYDGSSKYFADAVKGRFSISRDNTKNTLSLQMTSLRAEDTAVYYCARDPGVGSYYNVVGMDVWGQGTTVTVSS VL: DIRLTQSPLSLPVTLGQPASISCRSSQSLVYSDGNTYLNWFQQRPGQSPRRLIYRVSHRDSGVPDRFSGSESGTDFTLKISRVEAEDVGVYYCMQGTHWPPTFGQGTKVEIK , please?
Marked response: -0.25

Exam item: Recorded log10 of Kd for ADI-18896 (antibody, V domains shown, full-length IgG from yeast) VH: EVQLLESGGGVVQSGRSLRLSCAASGFTFSDNGMHWVRQAPGKGLEWVAGIFYDGSNKQYADSVKGRFTISRDNSKSTLYLQMNSLRAEDTAVYYCARAPYDIWSGYCLDYWGQGTLVTVSS VL: DIQMTQTPATLSMSPGERATLSCRASQSVNNNLAWYQQRPGQAPRLLIYGASTRATGIPARFSGSGSETEFTLTISSLQSEDFAVYHCQQYSIWPQTFGQGTKLEIK , please?
Marked response: 0.26

Exam item: Recorded log10 of Kd for ADI-18891 (antibody, V domains shown, full-length IgG from yeast; also called Antibody Number 246; Ab # 246) VH: QVQLQESGAEVKKPGSSVKVSCKASGGAFSSYAISWVRQAPGQGLEWLGGITHLFGTVSYAPKFQGRVTITADASTGTLYMVLNSLKPEDTAIYYCARDAYEVWTGSYLPPFDYWGQGTLVTVSS VL: EIVLTQSPGTLSLSPGERATLSCRASQTVTSNYLAWYQQKPGQAPRLLIYDALTRATGIPDRFSGSGSGTDFTLTISRLEPEDFALYYCQQYGSSFLTFGGGTKLEIK , please?
Marked response: -0.29

Exam item: Recorded log10 of Kd for ADI-18950 (antibody, V domains shown, full-length IgG from yeast) VH: EVQLVESGPRLVRPSETLSLTCTVSGGFIKTSSYYWGWIRQPPGKGLEWIGSIYYAGTTYYNPSLQSRVTMSVDTSNNQFSLKLNSVTAADTAVYYCATAWTFDHWGQGTLVTVSS VL: EIVLTQSPATLSLSPGERATLSCRASQSLSNYLAWYQQKPGQAPRLLIYDASNRATGIPARFSGSGSGTDFTLTISSLEPEDFAVYYCQLRGHWPPTITFGQGTRLEIK , please?
Marked response: 0.62

Exam item: Recorded log10 of Kd for ADI-18913 (antibody, V domains shown, full-length IgG from yeast) VH: QVQLVQSGPEVKKPGESLTISCKGSGYDFSNNWIGWVRQMPGKGLEWMGIIYPGDSDTRYSPSFQGQVTLSVDKSISTAYLQWRSLKASDSGIYYCARQIGGLVCSSESCYFYGMDVWGQGTTVTVSS VL: DIQLTQSPSSLSASVGGRVTITCRASQSISNYLNWYQHKPGKAPELLIYGASSLQSGVPSRFSGSGSGTDFTLTISSLQPEDFATYYCQQSDTTPFTFGQGTKVDIK , please?
Marked response: -0.33
